Parameter kinase still bound, per cent of control: see the listing below.
target: UniProt:O15146; assay: KINOMEscan competition binding; details: compound 10.0 µM
Sequence (O15146 whole entry, looked up): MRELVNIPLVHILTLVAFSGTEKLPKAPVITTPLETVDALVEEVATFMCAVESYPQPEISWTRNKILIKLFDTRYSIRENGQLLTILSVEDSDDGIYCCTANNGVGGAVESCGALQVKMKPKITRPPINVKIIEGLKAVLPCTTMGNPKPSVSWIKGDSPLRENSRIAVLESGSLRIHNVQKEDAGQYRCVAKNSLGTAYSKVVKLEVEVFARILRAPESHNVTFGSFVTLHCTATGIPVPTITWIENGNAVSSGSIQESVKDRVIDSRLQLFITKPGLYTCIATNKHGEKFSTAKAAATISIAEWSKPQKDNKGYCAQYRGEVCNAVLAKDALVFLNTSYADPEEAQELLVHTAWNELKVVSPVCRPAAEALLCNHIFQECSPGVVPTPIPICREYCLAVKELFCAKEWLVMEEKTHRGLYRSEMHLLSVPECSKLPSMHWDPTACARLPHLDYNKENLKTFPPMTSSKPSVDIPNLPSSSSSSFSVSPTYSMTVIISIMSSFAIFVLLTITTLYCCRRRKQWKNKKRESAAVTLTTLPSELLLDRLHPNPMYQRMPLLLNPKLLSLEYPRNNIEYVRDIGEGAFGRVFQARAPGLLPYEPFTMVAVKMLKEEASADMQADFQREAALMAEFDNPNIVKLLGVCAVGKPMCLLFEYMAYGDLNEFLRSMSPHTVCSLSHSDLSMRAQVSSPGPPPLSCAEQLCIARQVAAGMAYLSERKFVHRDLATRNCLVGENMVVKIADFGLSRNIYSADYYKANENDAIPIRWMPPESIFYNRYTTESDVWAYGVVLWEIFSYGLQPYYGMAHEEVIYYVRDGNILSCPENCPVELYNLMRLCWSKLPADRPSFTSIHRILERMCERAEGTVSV

{"smilesRepresentation": "CN1CCN(c2ccc(C(=O)Nc3ncc4c(n3)N(C)c3ccccc3C(=O)N4C)cc2)CC1", "kinase still bound, per cent of control, %": 100}
{"smilesRepresentation": "COc1cc(N2CCN(C)CC2)ccc1Nc1ncc2c(n1)Nc1ccccc1NC2=O", "kinase still bound, per cent of control, %": 100}
{"smilesRepresentation": "CN1C(=O)c2ccccc2N(C)c2nc(Nc3ccc(N4CCC(O)CC4)cc3)ncc21", "kinase still bound, per cent of control, %": 100}

----------
target: MAPK6 (human); assay: KINOMEscan competition binding; details: compound 10.0 µM

{"smilesRepresentation": "CN1CCN(c2ccc(C(=O)Nc3ncc4c(n3)N(C)c3ccccc3C(=O)N4C)cc2)CC1", "kinase still bound, per cent of control [%]": 70}
{"smilesRepresentation": "COc1cc(N2CCC(O)CC2)ccc1Nc1ncc2c(n1)N1CCc3cccc(c31)C(=O)N2C", "kinase still bound, per cent of control [%]": 100}
{"smilesRepresentation": "COc1cc(N2CCN(C)CC2)ccc1Nc1ncc2c(n1)N(C)c1sccc1C(=O)N2C", "kinase still bound, per cent of control [%]": 61}
{"smilesRepresentation": "CN1C(=O)c2ccccc2N(C)c2nc(Nc3ccc(N4CCC(O)CC4)cc3)ncc21", "kinase still bound, per cent of control [%]": 97}
{"smilesRepresentation": "O=C1NC(=O)/C(=C/c2c[nH]c(=O)c(-c3ccc(N4CCNCC4)nc3)c2)S1", "kinase still bound, per cent of control [%]": 93}
{"smilesRepresentation": "COc1cc(N2CCN(C)CC2)ccc1Nc1ncc2c(n1)N(C)c1ccccc1N(C)C2=O", "kinase still bound, per cent of control [%]": 100}
{"smilesRepresentation": "COc1cc(N2CCN(C)CC2)ccc1Nc1ncc2c(n1)Nc1ccccc1NC2=O", "kinase still bound, per cent of control [%]": 100}
{"smilesRepresentation": "CN1C(=O)c2ccccc2N(C)c2nc(NS(=O)(=O)c3ccc(N)cc3)ncc21", "kinase still bound, per cent of control [%]": 78}

----------
target: MAP2K6 (human); assay: KINOMEscan competition binding; details: compound 10.0 µM
Parameter kinase still bound, per cent of control: see the listing below.

{"smilesRepresentation": "COc1cc(N2CCN(C)CC2)ccc1Nc1ncc2c(n1)N(C)c1ccccc1N(C)C2=O", "testedTarget": "MAP2K6 (human)", "valueUnit": "%", "kinase still bound, per cent of control": 65}
{"smilesRepresentation": "NS(=O)(=O)c1ccc(-c2ccc(/C=C3\\SC(=S)N(CC(=O)O)C3=O)o2)cc1", "testedTarget": "MAP2K6 (human)", "valueUnit": "%", "kinase still bound, per cent of control": 32}
{"smilesRepresentation": "O=C1NC(=S)S/C1=C\\c1ccc(-c2cncc3ccccc23)o1", "testedTarget": "MAP2K6 (human)", "valueUnit": "%", "kinase still bound, per cent of control": 24}
{"smilesRepresentation": "CN1C(=O)c2ccccc2N(C)c2nc(NS(=O)(=O)c3ccc(N)cc3)ncc21", "testedTarget": "MAP2K6 (human)", "valueUnit": "%", "kinase still bound, per cent of control": 100}
{"smilesRepresentation": "O=C1NC(=O)/C(=C/c2c[nH]c(=O)c(-c3ccc(N4CCNCC4)nc3)c2)S1", "testedTarget": "MAP2K6 (human)", "valueUnit": "%", "kinase still bound, per cent of control": 100}

// data source = the kinase profiling compilation of Christmann-Franck et al. (2016)
